Items are presented alongside their recorded IC50.
assay: Inhibition of Mycobacterium tuberculosis His6-tagged MabA expressed in Escherichia coli BL21 (DE3) assessed as reduction in HBCoA formation using AcAcCoA as substrate preincubated for 30 mins followed by substrate and 100 uM NADPH addition and measured after 15 mins by LC-MS/MS analysis
Give your result in µM as a bare value.

O=C(O)c1cc(I)ccc1NC(=O)C1CCc2ccccc2C1 (stereo not drawn) : 109

Given the entry CC1(C#CC(=O)O)CC1(Cl)Cl (stereo not drawn) , report its measured IC50. 25

Given the entry "O=C(Nc1ccc(I)cc1C(=O)O)c1ccc(Cl)nc1" , report its measured IC50. 147

Given the entry "CC(C)(C)OC(=O)Nc1ccc(Oc2ccccc2)cc1C(=O)O" , report its measured IC50. 243

Given the entry "O=C(CCc1ccccc1)Nc1ccc(I)cc1C(=O)O" , report its measured IC50. 295
